# tested-system: Bone morphogenetic protein receptor type-2 (Homo sapiens, UniProt Q13873)
# method: Inhibition of recombinant C-terminal 6His-tagged human BMPR2 (188 to 517 residues) expressed in Escherichia coli Rosetta by LanthaScreen TR-FRET assay

{"smiles-code": "COc1cnc(Nc2cccc(S(N)(=O)=O)c2)nc1N1CCN(c2ccccc2)C(=O)C1", "IC50 [nM]": 2.8}
{"smiles-code": "CNC(=O)CCc1ccc(C(=O)NCc2cccc(N3CCN(c4nc(Nc5cccc(S(N)(=O)=O)c5)ncc4OC)CC3)c2)cc1", "IC50 [nM]": 1.6}
{"smiles-code": "CNC(=O)[C@@H]1CC[C@@H](n2c(-c3ccc4cnccc4c3)nc3ccc(C(=O)NCc4cccc(C(N)=O)c4)cc32)C1", "IC50 [nM]": 1.8}
{"smiles-code": "NC(=O)c1cccc(CNC(=O)c2ccc3nc(-c4ccc5cnccc5c4)n(C4CCCC4)c3c2)c1", "IC50 [nM]": 1.2}

* * *

// endpoint IC50 / system Activin receptor type-1 (Homo sapiens, UniProt Q04771)
assay-endpoint: IC50 (nM)

{"smiles-code": "CNC(=O)CCc1ccc(C(=O)NCc2cccc(N3CCN(c4nc(Nc5cccc(S(N)(=O)=O)c5)ncc4OC)CC3)c2)cc1", "assay-endpoint": "IC50", "units-label": "nM", "comparative-sign": ">", "meas-value": 1000}
{"smiles-code": "NC(=O)c1cccc(CNC(=O)c2ccc3nc(-c4ccc5cnccc5c4)n(C4CCCC4)c3c2)c1", "assay-endpoint": "IC50", "units-label": "nM", "comparative-sign": "=", "meas-value": 124}

* * *

# tested-system: Bone morphogenetic protein receptor type-2 (Homo sapiens, UniProt Q13873)
# method: Inhibition of recombinant C-terminal 6His-tagged human BMPR2 (188 to 517 residues) expressed in Escherichia coli Rosetta assessed as apparent inhibition constant using ATP as substrate incubated for 30 mins by Morrison plot analysis
# condition-parameters: read-out: Ki(app)
pKi: −log10 of the molar value.
assay-endpoint: pKi

{"molecule": "COc1cnc(Nc2cccc(S(N)(=O)=O)c2)nc1N1CCN(c2ccccc2)C(C)C1 (centres undefined)", "comparative-sign": "=", "meas-value": 6.93}
{"molecule": "CNC(=O)[C@@H]1CC[C@@H](n2c(-c3ccc4cnccc4c3)nc3ccc(C(=O)NCc4cccc(C(N)=O)c4)cc32)C1", "comparative-sign": "=", "meas-value": 8.21}
{"molecule": "COc1cnc(Nc2cccc(S(N)(=O)=O)c2)nc1N1CC(F)(c2ccccc2)C1", "comparative-sign": "=", "meas-value": 7.74}
{"molecule": "CNC(=O)c1ccc2nc(-c3ccc4cnccc4c3)n([C@@H]3CC[C@@H](C(=O)NC)C3)c2c1", "comparative-sign": "<", "meas-value": 6.00}

* * *

# method: Metabolic stability in human liver microsomes assessed as half life at 2 uM and mesured upto 60 mins in presence of NADPH by UHPLC-MS analysis
# Assay type: ADME, Microsome
# condition-parameters: microsomes, 1 h, 2 µM
assay-endpoint: t1/2 (min)

{"compound": "COc1cnc(Nc2cccc(S(N)(=O)=O)c2)nc1N1CCN(c2ccccc2)CC1C (stereo not given)", "meas-value": 79}
{"compound": "Cc1sc2c(c1C)C(c1ccc(Cl)cc1)=N[C@@H](CC(=O)OC(C)(C)C)c1nnc(C)n1-2", "meas-value": 14}
{"compound": "NC(=O)c1cccc(CNC(=O)c2ccc3nc(-c4ccc5cnccc5c4)n(C4CCCC4)c3c2)c1", "meas-value": 80}
{"compound": "COc1cnc(Nc2cccc(S(N)(=O)=O)c2)nc1N1CCN(c2ccccc2)C(=O)C1", "meas-value": 305}
{"compound": "COc1cnc(Nc2cccc(S(N)(=O)=O)c2)nc1N1CCN(c2ccccc2)CC1", "meas-value": 77}

* * *

# tested-system: TGF-beta receptor type-1 (Homo sapiens, UniProt P36897)
# Sequence (P36897 whole entry): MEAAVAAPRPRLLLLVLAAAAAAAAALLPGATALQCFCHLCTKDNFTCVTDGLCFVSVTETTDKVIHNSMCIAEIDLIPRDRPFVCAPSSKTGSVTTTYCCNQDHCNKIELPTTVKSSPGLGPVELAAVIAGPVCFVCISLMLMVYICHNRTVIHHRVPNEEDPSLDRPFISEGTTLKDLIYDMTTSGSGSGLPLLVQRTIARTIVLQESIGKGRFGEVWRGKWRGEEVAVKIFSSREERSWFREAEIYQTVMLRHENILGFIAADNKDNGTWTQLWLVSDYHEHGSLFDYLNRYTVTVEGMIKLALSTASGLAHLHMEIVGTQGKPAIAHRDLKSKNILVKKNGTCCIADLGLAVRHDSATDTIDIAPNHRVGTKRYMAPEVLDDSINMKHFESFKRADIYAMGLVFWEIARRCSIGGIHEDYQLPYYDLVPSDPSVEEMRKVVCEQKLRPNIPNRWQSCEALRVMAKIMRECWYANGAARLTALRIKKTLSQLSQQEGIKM

{"smiles-code": "CNC(=O)[C@@H]1CC[C@@H](n2c(-c3ccc4cnccc4c3)nc3ccc(C(=O)NCc4cccc(C(N)=O)c4)cc32)C1", "IC50": "> 1 µM"}

* * *

# tested-system: Bone morphogenetic protein receptor type-2 (Homo sapiens)
# Sequence (Q13873 whole entry): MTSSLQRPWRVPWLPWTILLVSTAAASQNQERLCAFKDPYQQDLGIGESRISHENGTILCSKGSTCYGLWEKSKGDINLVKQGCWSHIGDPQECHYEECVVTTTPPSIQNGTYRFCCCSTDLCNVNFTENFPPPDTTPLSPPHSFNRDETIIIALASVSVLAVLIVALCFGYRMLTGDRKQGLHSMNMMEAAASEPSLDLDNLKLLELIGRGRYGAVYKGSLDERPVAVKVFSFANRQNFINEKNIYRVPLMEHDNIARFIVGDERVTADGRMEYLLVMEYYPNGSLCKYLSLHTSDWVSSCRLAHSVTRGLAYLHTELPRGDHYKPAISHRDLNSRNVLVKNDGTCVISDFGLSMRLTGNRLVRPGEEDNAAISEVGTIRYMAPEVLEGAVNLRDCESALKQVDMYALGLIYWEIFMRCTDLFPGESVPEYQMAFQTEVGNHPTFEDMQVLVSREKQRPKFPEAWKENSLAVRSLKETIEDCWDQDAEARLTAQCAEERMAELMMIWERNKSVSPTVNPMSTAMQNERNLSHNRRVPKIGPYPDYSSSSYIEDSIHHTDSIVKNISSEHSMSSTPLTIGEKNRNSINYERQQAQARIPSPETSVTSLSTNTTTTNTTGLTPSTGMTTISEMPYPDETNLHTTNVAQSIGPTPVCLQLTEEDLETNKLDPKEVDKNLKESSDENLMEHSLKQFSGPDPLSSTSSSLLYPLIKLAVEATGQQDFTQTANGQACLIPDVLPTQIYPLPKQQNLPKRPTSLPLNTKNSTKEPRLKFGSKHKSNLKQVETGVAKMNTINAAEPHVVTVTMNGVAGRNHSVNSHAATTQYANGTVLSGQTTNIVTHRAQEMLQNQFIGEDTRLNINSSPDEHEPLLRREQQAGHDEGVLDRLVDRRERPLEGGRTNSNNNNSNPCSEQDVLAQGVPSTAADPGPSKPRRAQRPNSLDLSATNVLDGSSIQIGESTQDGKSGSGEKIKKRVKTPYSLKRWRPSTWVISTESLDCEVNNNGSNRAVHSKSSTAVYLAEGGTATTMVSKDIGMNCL
# method: Inhibition of recombinant C-terminal 6His-tagged human BMPR2 (188 to 517 residues) expressed in Escherichia coli Rosetta assessed as apparent inhibition constant using ATP as substrate incubated for 30 mins by Morrison plot analysis
# condition-parameters: read-out: Ki(app)
Quick list: log10 of Ki per entry.
assay-endpoint: log10 of Ki (log10 of the value in nM)

{"compound": "COc1cnc(Nc2cccc(S(N)(=O)=O)c2)nc1N1CCN(c2ccccc2)CC12CC2", "tested-system": "Bone morphogenetic protein receptor type-2 (Homo sapiens)", "assay-endpoint": "log10 of Ki", "meas-value": 2.34}
{"compound": "COc1cnc(Nc2cccc(S(N)(=O)=O)c2)nc1N1CCN(c2ccccc2)C(=O)C1", "tested-system": "Bone morphogenetic protein receptor type-2 (Homo sapiens)", "assay-endpoint": "log10 of Ki", "meas-value": 0.85}
{"compound": "NC(=O)c1cccc(CNC(=O)c2ccc3nc(-c4ccc5cnccc5c4)n(C4CCCC4)c3c2)c1", "tested-system": "Bone morphogenetic protein receptor type-2 (Homo sapiens)", "assay-endpoint": "log10 of Ki", "meas-value": 0.90}
{"compound": "Cn1c(-c2ccc3cnccc3c2)nc2ccc(C(=O)NCc3cccc(C(N)=O)c3)cc21", "tested-system": "Bone morphogenetic protein receptor type-2 (Homo sapiens)", "assay-endpoint": "log10 of Ki", "meas-value": 1.34}
{"compound": "COc1cnc(Nc2cccc(S(N)(=O)=O)c2)nc1N1CCN(c2ccccc2)CC1C(F)(F)F (stereo not drawn)", "tested-system": "Bone morphogenetic protein receptor type-2 (Homo sapiens)", "assay-endpoint": "log10 of Ki", "meas-value": 2.63}
{"compound": "CNC(=O)[C@@H]1CC[C@@H](n2c(-c3ccc4cnccc4c3)nc3ccc(C(=O)NCc4ccccc4)cc32)C1", "tested-system": "Bone morphogenetic protein receptor type-2 (Homo sapiens)", "assay-endpoint": "log10 of Ki", "meas-value": 1.59}

* * *

Form field: pIC50 (one value per entry).
# method: Inhibition of BMP signalling pathway in BMP2-stimulated human HEK293T cells expressing BRE and luciferase reporter assessed as inhibition of luciferase transactivation by measuring BRE-reporter activity preincubated for 30 mins followed by BMP2 stimulation and measured after 6 hrs by Bright-GLO mediated luciferase assay
# Assay type: cell-based
# condition-parameters: HEK-293T
pIC50: −log10 of the molar value.

{"smiles-code": "COc1cnc(Nc2cccc(S(N)(=O)=O)c2)nc1N1CCN(c2ccccc2)CC1", "pIC50": 5.06}
{"smiles-code": "NC(=O)c1cccc(CNC(=O)c2ccc3nc(-c4ccc5cnccc5c4)n(C4CCCC4)c3c2)c1", "pIC50": 5.21}
{"smiles-code": "CNC(=O)CCc1ccc(C(=O)NCc2cccc(N3CCN(c4nc(Nc5cccc(S(N)(=O)=O)c5)ncc4OC)CC3)c2)cc1", "pIC50": 5.31}
{"smiles-code": "COc1cnc(Nc2cccc(S(N)(=O)=O)c2)nc1N1CCN(c2ccccc2)C(=O)C1", "pIC50": 5.16}
{"smiles-code": "Cn1c(-c2ccc3cnccc3c2)nc2ccc(C(=O)NCc3cccc(C(N)=O)c3)cc21", "pIC50": 4.53}
{"smiles-code": "CNC(=O)[C@@H]1CC[C@@H](n2c(-c3ccc4cnccc4c3)nc3ccc(C(=O)NCc4cccc(C(N)=O)c4)cc32)C1", "pIC50": 4.62}
{"smiles-code": "c1ccc2c(-c3cnn4cc(-c5ccc(N6CCNCC6)cc5)cnc34)ccnc2c1", "pIC50": 7.09}

Provenance of the data: ChEMBL document CHEMBL5316332
